# Target Entity: T1, human MSLN-FL-his protein (human, UniProt Q13421 296-580)
# T1 construct: Self-made in HEK293E cells; also called human MSLN full-length protein; hMSLN-FL-his; not shown: His tag
# T1 sequence (Q13421 other isoform, or with tags, fused parts or gaps): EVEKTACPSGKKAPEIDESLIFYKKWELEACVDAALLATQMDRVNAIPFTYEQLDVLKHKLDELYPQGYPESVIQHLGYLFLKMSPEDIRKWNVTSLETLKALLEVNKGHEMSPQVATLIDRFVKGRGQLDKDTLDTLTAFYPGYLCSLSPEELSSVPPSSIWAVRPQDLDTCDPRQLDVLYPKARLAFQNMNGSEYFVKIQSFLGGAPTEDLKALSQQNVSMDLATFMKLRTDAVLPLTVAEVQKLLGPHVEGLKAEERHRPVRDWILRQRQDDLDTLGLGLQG
# Assay Remarks: ELISA on coated antigen, antibody 0.0001 nM
Catalogue of binders with associated OD450
Measured Endpoint: OD450 (OD450)

{"Binder": "S009-F3.45.21 (antibody, human IgG1, kappa, V domains shown, Human-murine chimeric antibody: murine VH/VL on human IgG1 heavy and kappa light constant regions) VH: DVQLQESGPGLVKPSQSLSLTCSVTGDSITSGYYWNWIRQFPGNKLEWMGFIRFDGTNNYNPSLKNRISITRDTSKNQFFLKLNSVTTEDTATYYCAREGSYAPAWFAYWGQGTLVTVSA VL: QIVLTQSPAIMSASPGEKVTMTCSASSSLSYMYWYQQKPGSSPRLLIYDTSNLASGVPVRFSGSGSGTSYSLTISRMEAEDAATYYCQQWSSYPPTFGGGTKLEIKR", "Measured Endpoint": "OD450", "Value": 0.1}
{"Binder": "S009-F3.80.22 (antibody, human IgG1, kappa, V domains shown, Human-murine chimeric antibody: murine VH/VL on human IgG1 heavy and kappa light constant regions) VH: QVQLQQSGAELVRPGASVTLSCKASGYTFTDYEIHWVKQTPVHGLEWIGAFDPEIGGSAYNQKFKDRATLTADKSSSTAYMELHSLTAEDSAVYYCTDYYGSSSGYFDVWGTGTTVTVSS VL: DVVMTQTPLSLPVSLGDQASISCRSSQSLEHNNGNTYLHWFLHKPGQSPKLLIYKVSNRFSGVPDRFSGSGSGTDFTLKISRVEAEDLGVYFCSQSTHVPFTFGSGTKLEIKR", "Measured Endpoint": "OD450", "Value": 0.07}
{"Binder": "S009-F3.16.1 (antibody, human IgG1, kappa, V domains shown, Human-murine chimeric antibody: murine VH/VL on human IgG1 heavy and kappa light constant regions) VH: EVKFEESGGGLVQPGGSMKLSCVASGFTFSNYWMNWVRQSPEKGLEWVAQIRLKSDNYATHYAESVKGRFSISRDDSKSSVYLQMNNLRAEDTGIYYCSVGTGGYWGQGTTLTVSS VL: DIVLTQSPASLALSPGKRATISCRASESVSIIGTDVIHWFQQKPGQPPKLLIYHASNLETGVPARFSGSGSRTDFTLTIDPVEEDDVAIYYCLQSRKIPWTFGGGTKLEIKR", "Measured Endpoint": "OD450", "Value": 0.06}
